# Tested on: DLD1
# assayInfo: cell viability (CellTiter-Glo) relative to plate median (fraction of plate median); higher = more viable cells
# testConditions: 5 µM; treatment time 24 h; reporter: 7TFP
Please provide measured cell viability for the entries that follow.
Give bare numbers.

CC(CCc1ccc(O)cc1)NCCc1ccc(O)c(O)c1 (centres undefined) :: 1.01

Consider the following items and state reported cell viability for each.
1. COc1cc(O)c(C(=O)/C=C/c2ccc(O)c(OC)c2)c(OC)c1
2. CN(C)CCC(c1ccc(Br)cc1)c1ccccn1 (centres undefined)
3. O=C1c2ccc(O)c(O)c2C(=O)c2c(O)ccc(O)c21

1: 1.02; 2: 0.931; 3: 0.966

Consider the following items and state reported cell viability for each.
1. Cc1nc(C)c(Cl)c(O)c1Cl
2. CC(=O)OCC(=O)[C@H]1CC[C@H]2[C@@H]3CCC4=CC(=O)CC[C@]4(C)[C@H]3CC[C@]12C
3. O=C(/C=C/c1ccccc1)c1ccc(O[C@@H]2O[C@H](CO)[C@@H](O)[C@H](O)[C@H]2O)cc1O
4. CC(=O)OCC(=O)[C@@]1(O)CC[C@H]2[C@@H]3CC[C@@H]4C[C@H](O)CC[C@]4(C)[C@H]3C(=O)C[C@@]21C
5. COc1ccc(C(=O)/C=C/c2ccccc2)cc1

1.1
0.952
0.947
0.905
0.964

---

# Test system: DLD1
# assayInfo: cell viability (CellTiter-Glo) relative to plate median (fraction of plate median); higher = more viable cells
# testConditions: 5 µM; treatment time 24 h; reporter: 7TFP
observable: cell viability
Give bare numbers.

COc1cc2c3cc1Oc1cc(ccc1O)C[C@@H]1c4c(cc(OC)c(O)c4Oc4ccc(cc4)C[C@@H]3N(C)CC2)CC[N+]1(C)C :: 0.992
Cc1ncc(CO)c(CO)c1O :: 1.02
Nc1ccc(C(=O)O)cc1 :: 0.979
OC[C@@H](O)[C@@H](O[C@@H]1O[C@H](CO)[C@H](O)[C@H](O)[C@H]1O)[C@H](O)[C@@H](O)CO :: 1.02
Cn1c([N+](=O)[O-])cnc1COC(N)=O :: 0.999
C[C@@H]1CC[C@@]2(OC1)O[C@H]1C[C@H]3[C@@H]4CC[C@@H]5C[C@@H](O)CC[C@]5(C)[C@H]4CC[C@]3(C)[C@H]1[C@@H]2C :: 0.993

Consider the following items and state reported cell viability for each.
1. CC(=O)N(c1onc(C)c1C)S(=O)(=O)c1ccc(N)cc1
2. O=C(O)c1cc(O)c(=O)c2c(O)c(O)ccc2c1

1: 1.02; 2: 1.02

Consider the following items and state reported cell viability for each.
1. Nc1cc(C(Cl)=C(Cl)Cl)c(S(N)(=O)=O)cc1S(N)(=O)=O
2. O=C(O)CCC(=O)OC[C@@H](NC(=O)C(Cl)Cl)[C@H](O)c1ccc([N+](=O)[O-])cc1

[1, 1]

---

Please provide measured cell viability for the entries that follow.
# Test system: SW480
# assayInfo: cell viability (CellTiter-Glo) relative to plate median (fraction of plate median); higher = more viable cells
# testConditions: 5 µM; treatment time 24 h; reporter: 7TFP
One number for each entry.

Some compounds with known cell viability results, for comparison:
COc1ccc([C@@H](C)C(=O)c2ccc(O)cc2O)cc1 :: 1.02
Fc1ccc([C@@H]2CCNC[C@H]2COc2ccc3c(c2)OCO3)cc1 :: 1.02

Let's switch to this compound now.
Measured cell viability of CC1(C)C2CC(=O)O[C@@]3(C)C4=CC(=O)O[C@@H](c5ccoc5)[C@]4(C)CCC3[C@@]2(C)C=C[C@H]1O (stereo partly drawn) : 0.993
